# experimental-details: soluble on expression in E. coli; label from the status in PepcDB or PDB records

>  <monomer-sequence>
MPSLGEAPQDLQRSQERRRIERIFAQGGKGVASPHRFPGPLPMLQNIPTHVIAGPLGAGKTSLIRHLLSQRPAAERWAVLINEFGQIGLDAALLTRDEDGIALGEVAGGCLCCVNGAPFQVGLGRLLRKARPDRLLIEPSGLGHPAQLLKQLNEAPWKGVLAVQPCVLVLDAQALAAGKPLPRAQQDALSSAGLLVLNKDELLSDSDRLRVLEQLPDLPLFWTRHAALPLAELPGLGASAEAALEQSDIPQGLAQLPAVWSDPTLPICLSQSQEDGWSIGWRWHPSQQFDLVRVEHWLQNLDWRRAKLVLHSDQGWRSGNGLDNSPLNWLPSEWRRDSRLELIFSSPQDIAVLQASLDACRLLEHHHHHH

>  <soluble on expression in E. coli>
not soluble

$$$$
>  <monomer-sequence>
MGHHHHHHSHMIDILDVKSRATIQDLGRFGLRRFGISHCGAMDKLALRAGNILLGNAENVPAIEVPLGGITLQFQQDMNFCVTGAFYEMMLDDKPVFAYWRYQVRAGQILKMARAKIGMYGYLCVQGGFVLPQALNSCSTDLRAQIGGIEGRCLQAGDQLQTANDHILRSEIGIAPIPLRDVIRALPSSEYQAFKRKSQYYWWRNEWTLQSNSDRMGYRFQGQTLELKQPLEMLSHAIQFGSVQVPPSGQPIILMADAQTTGGYPKIANVIDADLGALAQVRLGSTIKFEAVSLQEAAKLRRKNEIYLDQIRRIVDEKN

>  <soluble on expression in E. coli>
not soluble

$$$$

###

# experimental-details: soluble on expression in E. coli; label from the status in PepcDB or PDB records
readout-label: soluble on expression in E. coli

Reference set (4 entries):
>  <monomer-sequence>
MECETDEQKQGSDENMSECETSSVCSSSDTGLFTNDEGRQGDDEQSDWFYEGECVPGFTVPNLLPKWAPDHCSEVERMDSGLDKFSDSTFLLPSRPAQRGYHTRLNRLPGAAARCLRKGRRRLVGKETSINTLGTERISHIISDPRQKDFWLPSAGKRERNQFNPLSPLYSLDVLADASHRRCSPAHCSARQANVHWGPPCSRVIKRKRKPVATASLSSPSAVHMDAVEPTTPASQAPKSPSSEWLVRTSAAEKATDATTATFFKMPQEKSPGYSLEHHHHHH

>  <readout-label>
soluble on expression in E. coli

>  <result>
soluble

$$$$
>  <monomer-sequence>
MIDLHCHSTVSDGMLSPAEVVRLAHQNGCTLLALTDHDHTGGIAEARAEADKLGLRLINGVEISVTWRGRTIHVVGLDFDEQDENLQNLLAQVRKGRLKRLEAIAAKLEKKGIGGAYDGALALAANKEMVSRTHVAEFLIQAGHVKNKQQAFTKYLGDGKSCAVRHEWATLEDCVSAVNGAGGMAVIAHPMRYDLSATAKRNLFEEFKNLGGAGIEVHSGNCCKNDRLNYALLAERFGMLASAGSDFHRLNDFSGGILGACPELPENCKPVWEHFSRY

>  <readout-label>
soluble on expression in E. coli

>  <result>
not soluble

$$$$
>  <monomer-sequence>
MSLFTCEDPAVWKAVHNKYWTVVEAKSAGKRKTSGKLLQLDKWFQEDLPAAITARPERFLTHAELVKIMEWKLTKGKFRPRLQQLIGSNNEEAVQSSSSKAFSLLPDVQAAIKELCKLKGVGSATASAVLVAGAPDKVAFMADEAVESIAELRPVEYTDKHYALYLQKMLWKTSELNKVDAQQDWTPHRVEQCLWTWTVANQIQPSLLQGVSLKDATNQKPEKRKTADEKPSKRKKTE

>  <readout-label>
soluble on expression in E. coli

>  <result>
not soluble

$$$$
>  <monomer-sequence>
MWPLLKNNVVRTGRRYAVFQPRRFTPRPQHDAFGTKDDVRGFTVFSHAACGASLMDPLSPSRWEVALFPSSPPSLKDSCHLCAWTFGLAGPCAAWLSTRRELVGGFSKIIYIQNSAECWSVRETKRCCRICRWRSTSSSTDLRSNPYPIRWCYCWTMFPPMYPVLLLTASPVPTPLEHHHHHH

>  <readout-label>
soluble on expression in E. coli

>  <result>
not soluble

$$$$

For each entry beneath this line, provide reported soluble on expression in E. coli.
1. MNRTAMRASQKDFENSMNQVKLLKKDPGNEVKLKLYALYKQATEGPCNMPKPGVFDLINKAKWDAWNALGSLPKEAARQNYVDLVSSLSPSLESSSQVEPGTD
2. VVVGAERTELLLPLLRDKRVALVANATSVVGTEREHLLDNLLRQGVNVVKILGPEHGFRGDADAGATVKDERDVRTGIPIVSLYGKNKKPTPRMLADVDVLLFDMQDVGTRFFTYISTLHYVMEACAEEQKKLIVTDRPNPNDYVDGPILQDDCRSFVGVDPLPILHGLTIGELANMINGEGWLGKKEMKCDLTVVPMSGWKHGQEYALPVKPSPNLPTANAIAWYPSLCLFEATIMSVGRGTDFPFEVLGYPKKVFGSFVFVPRPIRGMDSNPLYKGRHCYGVDLRGEKAPRGLSLQLLIRYYQTARREGIKFVNRKQMFNLLAGTKELAQQIEKGRTEEQIRASWQSDLDKYHKLRKKYLLYPTPTE
3. SLRFVDEYRAPEQVMQLIEHLRERASHLSYTAERPLRIMEVCGGHTHAIFKFGLDQLLPENVEFIHGPGCPVCVLPMGRIDTCVEIASHPEVIFCTFGDAMRVPGKQGSLLQAKARGADVRIVYSPMDALKLAQENPTRKVVFFGLGFETTMPTTAITLQQAKARDVQNFYFFCQHITLIPTLRSLLEQPDNGIDAFLAPGHVSMVIGTDAYNFIASDFHRPLVVAGFEPLDLLQGVVMLVQQKIAAHSKVENQYRRVVPDAGNLLAQQAIADVFCVNGDSEWRGLGVIESSGVHLTPDYQRFDAEAHFRPAPQQVCDDPRARCGEVLTGKCKPHQCPLFGNTCNPQTAFGALMVSSEGACAAWYQYRQQESEA

1. soluble
2. soluble
3. soluble
